Hi there, I'd appreciate the recorded binding signal for every entry that follows.
Target: T1, RBM10 RRM1-ZnF (Homo sapiens, UniProt P98175 129-242)
T1 sequence: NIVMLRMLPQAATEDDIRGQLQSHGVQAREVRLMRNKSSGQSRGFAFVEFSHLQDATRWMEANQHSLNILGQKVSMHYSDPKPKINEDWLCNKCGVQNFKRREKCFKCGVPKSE
Test: ITC; 10 uM ZnCl2; 10 mM sodium phosphate pH 6.9, 50 mM NaCl, 1 mM TCEP (+10 uM ZnCl2 for ZnF constructs); ITC 25 C; NMR 298 or 310 K
Conditions: protein: recombinant; tags: His6 or His6-SUMO3, cleaved with HRV 3C

Answered examples (3):
BINDER: CUAUGGA (ssRNA)
binding signal: ~5 fold decrease in affinity vs CUGUGGA
//
BINDER: UGUGGA (ssRNA)
binding signal: ~2 fold decrease in affinity vs CUGUGGA
//
BINDER: CUGAGGA (ssRNA)
binding signal: < 2 fold decrease in affinity vs CUGUGGA

Query: Please report the measured binding signal for CAGUGGA (ssRNA)
Response: < 2 fold decrease in affinity vs CUGUGGA

This collection of values is drawn from paper PMC5499739.
